Hey, just so you know, these numbers are from PubChem BioAssay AID1016.

- Test system: alkaline phosphatase, intestinal [Bos taurus]
- assay.method.text: IAP enzyme activity enhancers – biochemical, bovine IAP, CDP-star luminescence, primary screen (AID 1016)
- run.parameters: purified bovine IAP, 30 min, at 20 µM, fold of DMSO-control signal, blank-subtracted
The campaign covered roughly 200,000 compounds. About 330 (0.17%) were called active.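 The calls were made as follows: active = activation factor of 2 or more at 20 µM, a signal rise over negative controls twice the positive control's; inactive = the rest.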 For the sample, actives were picked, then their nearest neighbours and some compounds at random.
Allowed answers: active, inactive

{"columns": ["compound", "label.value"],
 "data": [
  ["CCOc1cc(N2CCOCC2)c(OCC)cc1NC(=O)C1=NN(c2cccc(C)c2)C(=O)CC1", "inactive"],
  ["COc1ccccc1N1CCN(c2ccc([N+](=O)[O-])nc2)CC1", "inactive"]
]}

Hi, do you know how CCOC(=O)C1(Cc2cccc(OC)c2)CCN(C(C)COC)CC1 (configuration not stated) came out in this test?
inactive

Hi, do you know how COc1ccc(C2/C(=C(/O)c3ccccc3)C(=O)C(=O)N2c2ncccn2)cc1OC (configuration not stated) came out in this test?
inactive

Hi, do you know how `CCN(CC)S(=O)(=O)c1ccc(OC(C)C)c(N)c1` came out in this test?
inactive

Hi, do you know how `O=C(O)c1n[nH]nc1-c1ccccc1` came out in this test?
inactive

Hi, do you know how CC1CN(C(=O)c2ccccc2NS(=O)(=O)c2cccc([N+](=O)[O-])c2)CC(C)O1 (configuration not stated) came out in this test?
inactive

Hi, do you know how `CC(=O)c1sc(N/N=C/c2ccc(C(C)C)cc2)nc1C` came out in this test?
inactive

Hi, do you know how `CCS(=O)(=O)c1ccc(O)c(NC(=O)COc2ccc(Cl)cc2)c1` came out in this test?
inactive

Hi, do you know how `O=C(OCC(=O)c1c[nH]c2ccccc12)c1cccc(O)c1` came out in this test?
inactive

Hi, do you know how COc1ccc(C2SCCN2S(=O)(=O)c2ccccc2)cc1OC (configuration not stated) came out in this test?
inactive

Hi, do you know how `CC1(C)Cc2cccc(OCC(=O)N3CCN(c4ccc([N+](=O)[O-])cc4)CC3)c2O1` came out in this test?
inactive

Hi, do you know how `Cc1ccc2[nH]c(=O)c(CN3CCCCC3)c(-c3ccccc3)c2c1` came out in this test?
inactive

Hi, do you know how `COc1cc(NC(=S)NCc2ccc(S(N)(=O)=O)cc2)cc(OC)c1` came out in this test?
inactive

Hi, do you know how `Cc1cccc(-n2cnc(C(=O)NNC(=S)Nc3ccccc3)c2)n1` came out in this test?
inactive

Hi, do you know how `COC(=O)c1cccc([N+](=O)[O-])c1CS(=O)(=O)c1ccc(C)cc1` came out in this test?
inactive

====

- Test system: alkaline phosphatase, intestinal [Bos taurus]
- assay.method.text: IAP enzyme activity enhancers – biochemical, bovine IAP, CDP-star luminescence, primary screen (AID 1016)
- run.parameters: purified bovine IAP, 30 min, at 20 µM, hits give high values, fold of DMSO-control signal, blank-subtracted
In all, about 200,000 compounds went through this assay and about 330 (0.17%) were called active. For the sample, actives were picked, then their nearest neighbours and some compounds at random.
Record form. Attribute: activation factor. Fill in for each entry.
Numbers only.

Study these solved cases before continuing.
{"columns": ["molecule", "reported.endpoint", "numeric.result"],
 "data": [
  ["Cc1ccsc1/C=N/n1c(=S)[nH]nc(C)c1=O", "activation factor", 0.9],
  ["Cc1ccc(S(=O)(=O)C2C(=O)NC3(C)CC2c2ccccc2O3)cc1 (configuration not stated)", "activation factor", 0.9],
  ["CC1=CC=CC2=N/C(=N\\S(=O)(=O)c3ccc(F)cc3F)c3ccccc3CN12", "activation factor", 0.9]
]}

Could you tell me activation factor for each of these molecules? They are listed below.
1. COC(=O)C1=NN(c2ccccc2)C2C(=O)N(c3ccccc3OC)C(=O)C12 (configuration not stated)
2. CCCn1c(C(O)c2ccc(OCC)cc2)nc2ccccc21 (configuration not stated)
3. CCCNC(=S)N1CCCC(c2nc3ccccc3[nH]2)C1 (configuration not stated)
4. COc1cc2c(cc1NC(=O)CN1CCN(S(=O)(=O)c3ccc(F)cc3)CC1)oc1ccccc12
5. Cc1ccc(S(=O)(=O)N2CCN(CC(=O)N/N=C/c3cc([N+](=O)[O-])ccc3Cl)CC2)cc1

1: 0.9; 2: 19.1; 3: 1.1; 4: 2; 5: 0.5
